molecular target: c-Met (cytoplasmic domain) (Homo sapiens); construct: 10 ng/mL c-Met (cytoplasmic domain, Invitrogen Corporation #PV3143); purchased Invitrogen Corporation PV3143; assay: c-Met Kinase Assay (same methods as for ALK, with modifications); type: biochemical; details: 1 μM ATP (Km level); read-out: cMet Activity (c-Met Kinase Inhibition, IC50)
pIC50: −log10 of the molar value.
RECORDED METRIC: pIC50

Reported pIC50, molecule CC1(C)CCCOc2c(Nc3ncc(Cl)c(Nc4ccccc4-n4cccn4)n3)cccc21 : ____
< 5.00

Quick one: pIC50 for CCN1C(=O)CCCc2c1ccc(Nc1ncc(Cl)c(Nc3ccccc3-c3ncccc3C)n1)c2OC ?
< 5.00

Would you mind telling me what pIC50 value was observed for COc1cc2c(cc1Nc1ncc(Cl)c(Nc3ccccc3S(=O)(=O)N(C)C)n1)CCN(CC1COCCO1)CC2 (centres unmarked) ?
5.00 to 6.00

Any idea what pIC50 was measured for COc1cc(N2CCOCC2)ccc1Nc1nc(Nc2cccc3c2OCCCC3(C)C)ncc1Cl ?
< 5.00

Need pIC50 of Cn1ccnc1-c1ccccc1Nc1nc(Nc2ccc3c(c2)CCC(NCC(F)(F)F)CC3)ncc1Cl (centres unmarked) , thanks.
6.00 to 7.00

For the molecule shown here, COc1cc2c(cc1Nc1ncc(Cl)c(Nc3ccc(N4CCN(C)CC4)cc3OC)n1)CCN(CC(F)F)CC2 , give the reported pIC50.
< 5.00

---
Given COc1c(Nc2ncc(Cl)c(Nc3ccccc3S(=O)(=O)N3CCCC3)n2)ccc2c1CCC(N1CCCC(O)C1)CC2 (mixture of isomers) , state its recorded pIC50.
5.00 to 6.00

Recorded pIC50 for CNC(=O)C1C2C=CC(C2)C1Nc1nc(Nc2ccc3c(c2)CCC(O)CC3)ncc1Cl (centres unmarked) , please?
6.00 to 7.00

====

biological target: c-Met (cytoplasmic domain) (Homo sapiens); construct: 10 ng/mL c-Met (cytoplasmic domain, Invitrogen Corporation #PV3143); purchased Invitrogen Corporation PV3143; assay: c-Met Kinase Assay (same methods as for ALK, with modifications); type: biochemical; settings: c-Met kinase inhibition, 1 μM ATP; read-out: cMet Activity
Below, each entry is listed alongside its reported IC50.

Here are 5 compounds together with their reported answers.
Please report the recorded IC50 for CCN1CCN(CC(=O)N(C)C)Cc2cc(OC)c(Nc3ncc(Cl)c(N[C@@H]4CCCC[C@H]4NS(C)(=O)=O)n3)cc21 .
> 10000 nM

Item under review: CCN1C(=O)OCCc2cc(Nc3ncc(Cl)c(Nc4ccccc4C(=O)NC)n3)ccc21 . Reported IC50?
< 100 nM

Need IC50 of CNC(=O)c1ccsc1Nc1nc(Nc2ccc3c(c2)NC(=O)CCC3(C)C)ncc1Cl , thanks.
1000 to 10000 nM

Item COc1cc2c(cc1Nc1ncc(Cl)c(N[C@@H]3[C@H](C(N)=O)[C@H]4C=C[C@@H]3C4)n1)CCOC(=O)N2C has what recorded IC50?
> 10000 nM

Which IC50 is listed for CN1C(=O)OCCc2cc(Nc3ncc(Cl)c(Nc4ccccc4OCC#N)n3)ccc21 ?
< 100 nM

New cases:
Which measured IC50 value corresponds to C#CCNC(=O)c1cccc(F)c1Nc1nc(Nc2ccc3c(c2)OCC(O)(CO)CN3CC)ncc1Cl (centres unmarked) ?
100 to 1000 nM

Request the reported IC50 associated with C#CCNC(=O)c1cccc(F)c1Nc1nc(Nc2ccc3c(c2)N(C(C)C)CCCC3(C)C)ncc1Cl
1000 to 10000 nM

Reported IC50, compound COCCN1CCCC(C)(C)c2ccc(Nc3ncc(Cl)c(N[C@H]4[C@@H](C(N)=O)[C@@H]5C=C[C@H]4C5)n3)cc21 : ____
100 to 1000 nM

Given CNC(=O)c1ccccc1Nc1nc(Nc2cc3c(cc2OC)N(C)C(=O)OCC3)ncc1Br , state its recorded IC50.
100 to 1000 nM

Could you tell me which IC50 is on file for CNC(=O)c1cccc(F)c1Nc1nc(Nc2ccc3c(c2)N(C(C)C)C(=O)CCC3)ncc1Cl ?
100 to 1000 nM

IC50 for CCC(=O)OCCN1CCc2cc(Nc3ncc(Cl)c(Nc4ccccc4S(=O)(=O)N(C)C)n3)c(OC)cc2CC1 ?
1000 to 10000 nM

====

target: baculovirus-expressed ALK (Homo sapiens, UniProt Q9UM73); construct: host or cells: baculovirus expression system; experiment: ALK Kinase Assay (ELISA-type, time-resolved fluorescence); format: biochemical; conditions: ALK kinase inhibition, 1 μM ATP; read-out: ALK Activity
Sequence (Q9UM73 19-1620): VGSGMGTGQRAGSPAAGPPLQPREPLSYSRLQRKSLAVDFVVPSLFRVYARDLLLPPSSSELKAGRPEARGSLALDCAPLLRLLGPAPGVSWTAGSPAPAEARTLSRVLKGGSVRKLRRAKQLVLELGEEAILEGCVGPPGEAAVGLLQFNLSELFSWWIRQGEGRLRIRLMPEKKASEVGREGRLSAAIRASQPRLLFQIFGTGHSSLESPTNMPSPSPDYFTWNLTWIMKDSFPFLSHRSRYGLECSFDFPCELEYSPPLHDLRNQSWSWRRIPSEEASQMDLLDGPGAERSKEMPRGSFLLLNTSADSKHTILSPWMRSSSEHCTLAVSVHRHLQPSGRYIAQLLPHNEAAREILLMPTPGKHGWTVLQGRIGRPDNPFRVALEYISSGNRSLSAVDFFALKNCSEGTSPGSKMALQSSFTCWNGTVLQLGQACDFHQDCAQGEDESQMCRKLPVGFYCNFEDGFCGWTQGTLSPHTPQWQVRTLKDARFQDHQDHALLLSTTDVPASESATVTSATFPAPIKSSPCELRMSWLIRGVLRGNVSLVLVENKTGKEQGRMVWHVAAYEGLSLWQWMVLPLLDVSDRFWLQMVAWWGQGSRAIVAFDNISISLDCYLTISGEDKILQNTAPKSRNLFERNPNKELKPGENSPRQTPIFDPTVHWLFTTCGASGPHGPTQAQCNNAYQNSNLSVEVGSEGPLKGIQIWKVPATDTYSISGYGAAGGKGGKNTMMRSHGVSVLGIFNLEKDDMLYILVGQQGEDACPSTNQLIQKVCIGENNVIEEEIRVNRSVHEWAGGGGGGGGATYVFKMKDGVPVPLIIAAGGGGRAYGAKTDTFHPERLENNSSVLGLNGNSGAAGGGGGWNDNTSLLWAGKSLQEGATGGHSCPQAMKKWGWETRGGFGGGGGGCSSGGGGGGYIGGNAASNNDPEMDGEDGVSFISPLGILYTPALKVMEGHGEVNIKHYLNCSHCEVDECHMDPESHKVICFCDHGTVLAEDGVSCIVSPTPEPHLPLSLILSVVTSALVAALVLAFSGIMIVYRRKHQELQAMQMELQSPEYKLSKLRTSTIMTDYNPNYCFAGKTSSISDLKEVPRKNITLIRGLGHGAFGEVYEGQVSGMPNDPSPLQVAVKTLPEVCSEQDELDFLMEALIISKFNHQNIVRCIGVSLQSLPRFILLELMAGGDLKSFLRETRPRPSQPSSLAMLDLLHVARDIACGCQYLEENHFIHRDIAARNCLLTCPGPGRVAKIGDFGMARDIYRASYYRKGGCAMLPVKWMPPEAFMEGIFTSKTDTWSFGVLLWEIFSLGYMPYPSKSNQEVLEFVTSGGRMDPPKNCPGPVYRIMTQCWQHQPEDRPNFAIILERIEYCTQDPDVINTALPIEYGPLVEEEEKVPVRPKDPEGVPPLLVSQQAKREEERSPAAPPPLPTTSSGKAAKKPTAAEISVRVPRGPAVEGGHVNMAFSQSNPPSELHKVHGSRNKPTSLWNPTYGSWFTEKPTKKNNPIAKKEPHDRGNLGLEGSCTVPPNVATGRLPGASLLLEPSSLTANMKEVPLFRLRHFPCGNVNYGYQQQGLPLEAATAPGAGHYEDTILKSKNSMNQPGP
molecules and their reported IC50

# IC50 lookup, item COc1cc2c(cc1Nc1ncc(Cl)c(Nc3ccc(N4CCOCC4)cc3OC)n1)CCN(CCN1CCOCC1)CC2
< 100 nM

Bench note: what IC50 did CCN1C(=O)CCC(C)(C)c2ccc(Nc3ncc(Cl)c(Nc4ccccc4S(=O)(=O)N(C)C)n3)cc21 show?
< 100 nM

Fill blank: measured IC50 of the molecule CCN1CC(=O)N(CC)c2cc(Nc3ncc(Cl)c(Nc4c(F)cccc4C(=O)NC)n3)ccc2C1 is ____.
100 to 1000 nM

What IC50 value was documented for this molecule, CNC(=O)c1ccccc1Nc1nc(Nc2cc3c(cc2OC)CCN(CCN2CCOCC2)CC3)ncc1Cl ?
< 100 nM

Please report the recorded IC50 for CC(=O)NCc1ccccc1Nc1nc(Nc2ccc3c(c2)CCOC(=O)N3C)ncc1Cl .
100 to 1000 nM

Suppose we examine the molecule CNC(=O)c1ccsc1Nc1nc(Nc2ccc3c(c2)CCCC(=O)N3C)ncc1Cl ; what IC50 value has been reported?
100 to 1000 nM

Recorded IC50 of CNC(=O)c1cnn(C)c1Nc1nc(Nc2ccc3c(c2)CC(=O)N(C)CC3)ncc1Cl , please.
100 to 1000 nM

So what does the record say about IC50 for COc1cc2c(cc1Nc1ncc(Cl)c(Nc3ccccc3S(=O)(=O)C(C)C)n1)CCN(CCN1CCOCC1)CC2 ?
< 100 nM

Let us move to another entry and its IC50.
I have this molecule here, CNC(=O)c1sccc1Nc1nc(Nc2ccc3c(c2)NC(=O)CCC3)ncc1Cl , and I need its recorded IC50.
100 to 1000 nM

====

molecular target: c-Met (cytoplasmic domain) (Homo sapiens); construct: 10 ng/mL c-Met (cytoplasmic domain, Invitrogen Corporation #PV3143); purchased Invitrogen Corporation PV3143; experiment: c-Met Kinase Assay (same methods as for ALK, with modifications); assay type: biochemical; conditions: cMet Activity, c-Met kinase inhibition, 1 μM ATP
pIC50: −log10 of the molar value.
RECORDED METRIC: pIC50

# lookup: pIC50 of CNC(=O)c1sccc1Nc1nc(Nc2ccc3c(c2)N(C(C)=O)CCCO3)ncc1Cl
> 7.00

====

Molecular target: c-Met (cytoplasmic domain) (Homo sapiens, UniProt P08581)
Construct: 10 ng/mL c-Met (cytoplasmic domain, Invitrogen Corporation #PV3143); purchased Invitrogen Corporation PV3143
Sequence (P08581 956-1390 limits assumed): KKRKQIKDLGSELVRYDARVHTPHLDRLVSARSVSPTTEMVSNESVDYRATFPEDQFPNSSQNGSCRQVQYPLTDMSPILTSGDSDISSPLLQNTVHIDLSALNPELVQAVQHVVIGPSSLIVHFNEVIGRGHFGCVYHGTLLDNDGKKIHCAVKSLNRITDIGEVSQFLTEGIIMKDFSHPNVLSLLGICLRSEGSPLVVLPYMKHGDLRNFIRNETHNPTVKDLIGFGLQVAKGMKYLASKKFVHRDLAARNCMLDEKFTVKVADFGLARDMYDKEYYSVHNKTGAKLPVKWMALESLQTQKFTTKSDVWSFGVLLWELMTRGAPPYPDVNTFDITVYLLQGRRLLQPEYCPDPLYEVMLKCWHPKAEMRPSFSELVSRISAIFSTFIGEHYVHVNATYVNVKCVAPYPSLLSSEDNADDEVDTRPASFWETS
Experiment: c-Met Kinase Assay (same methods as for ALK, with modifications)
Assay type: biochemical
Conditions: 1 μM ATP (Km level); read-out: cMet Activity (c-Met Kinase Inhibition, IC50)
Protocol: Briefly, each 96-well plate was coated with 100 μL/well of 10 μg/mL substrate (phospholipase C-γ) in Tris-buffered saline (TBS). […] The reaction was initiated by adding enzyme (30 ng/ml ALK) and was allowed to proceed at 37° C. for 15 minutes. Detection of the phosphorylated product was performed by adding 100 μl/well of Eu-N1 labeled PT66 antibody (Perkin Elmer # AD0041). Data analysis was performed using ActivityBase (IDBS, Guilford, UK). […]
pIC50: −log10 of the molar value.
RECORDED METRIC: pIC50

Fill in: pIC50 of CC1(C)CCCOc2c(Nc3ncc(Cl)c(Nc4ccccc4OCC#N)n3)cccc21 [Example 880] is ___
< 5.00

So what's the measured pIC50 for this one? COc1cc2c(cc1Nc1ncc(Cl)c(Nc3ccc(OC)c4c3C(=O)N(C)C4)n1)CCN(CC(=O)N(C)C)CC2 [Example 937]
< 5.00

May I ask what pIC50 has been recorded for COc1cc2c(cc1Nc1ncc(Cl)c(Nc3ccccc3S(=O)(=O)N(C)C)n1)CCN(CC(C)(F)F)CC2 [Example 824] ?
< 5.00

Look up pIC50 for this compound: CN(C)S(=O)(=O)c1ccccc1Nc1nc(Nc2ccc3c(c2)CCN(C(=O)C2COCCO2)CC3)ncc1Cl (centres unmarked) [Example 638]
> 7.00

Others:
Would you mind telling me what pIC50 value was observed for CCN1C(=O)CCCc2c1ccc(Nc1ncc(Cl)c(NC3C4C=CC(C4)C3C(=O)NC(C)C)n1)c2OC (centres unmarked) [Example 603] ?
< 5.00

Which pIC50 reading was recorded for the compound COc1cc(N2CCOCC2)ccc1Nc1nc(Nc2ccc3c(c2OC)CCC(N2CCOCC2)CC3)ncc1Cl (centres unmarked) [Example 894] ?
< 5.00

Param item = COc1c(Nc2ncc(Cl)c(N[C@H]3[C@@H](C(N)=O)[C@@H]4C=C[C@H]3C4)n2)ccc2c1CCC(NCCO)CC2 (single isomer, unassigned) [Example 697] ; retrieve measured pIC50.
5.00 to 6.00

Which value of pIC50 has been reported for CCN1CC(=O)N(C)c2cc(Nc3ncc(Cl)c(N[C@@H]4CCCC[C@H]4NS(C)(=O)=O)n3)c(OC)cc2C1 [Example 745] in the records?
< 5.00

// pIC50 lookup, key: COc1cc2c(cc1Nc1ncc(Cl)c(Nc3ccc(N4CCOCC4)cc3OC)n1)CCN(CC(F)F)CC2 [Example 761]
< 5.00

Endpoint output: pIC50 of COc1c(Nc2ncc(Cl)c(NC3CCCCNC3=O)n2)ccc2c1CCC(N1CCOCC1)CC2 (mixture of isomers) [Example 902] . Value?
< 5.00

May I ask what pIC50 has been recorded for CN1C(=O)CCCc2cc(Nc3ncc(Cl)c(Nc4ccccc4C(=O)NCCC#N)n3)ccc21 [Example 871] ?
> 7.00

// pIC50 lookup, key: COc1cc2c(cc1Nc1ncc(Cl)c(N[C@H]3[C@@H](C(N)=O)[C@@H]4C=C[C@H]3C4)n1)N(C)C(=O)CNC2 [Example 743]
< 5.00

Look at this compound and give its reported pIC50. CCN1C(=O)CCCc2c1ccc(Nc1ncc(Cl)c(N[C@H]3[C@@H](C(=O)NC)[C@@H]4C=C[C@H]3C4)n1)c2OC (relative stereo) [Example 601]
< 5.00

// lookup pIC50 for COc1c(Nc2ncc(Cl)c(Nc3ccccc3C(=O)OC(C)C)n2)ccc2c1CCCC(N1CCOCC1)C2 (centres unmarked) [Example 948]
< 5.00

The origin of these recorded values is patent US8148391B2.
